Entry source: patent US6649595B2

# Subject of test: FKBPwt (Homo sapiens)
# Construct: made in house
# Assay name: Competitive fluorescence polarization (FP) binding assay of rapalogs to FKBP
# Condition label: =IC50/IC50 of rapamycin; C24 analogs, Table 4
Recorded endpoint: fold loss in affinity (vs rapamycin)

Compound: COC1CC2CCC(C)C(O)(O2)C(=O)C(=O)N2CCCCC2C(=O)OC(C(C)CC2CCC(O)C(OC)C2)CC(=NOCC(C)C)C(C)C=C(C)C(O)C(OC)C(=O)C(C)CC(C)C=CC=CC=C1C (stereo not drawn) [Compound 10, Rapamycin (E and Z)-24-(O-isobutyloxime)]
fold loss in affinity (vs rapamycin): 890

Compound: COC1CC2CCC(C)C(O)(O2)C(=O)C(=O)N2CCCCC2C(=O)OC(C(C)CC2CCC(O)C(OC)C2)C/C(=N\OC(C)(C)C)C(C)C=C(C)C(O)C(OC)C(=O)C(C)CC(C)C=CC=CC=C1C (stereo not drawn)
fold loss in affinity (vs rapamycin): 1046

I = CON=C1CC(C(C)CC2CCC(O)C(OC)C2)OC(=O)C2CCCCN2C(=O)C(=O)C2(O)OC(CCC2C)CC(OC)C(C)=CC=CC=CC(C)CC(C)C(=O)C(OC)C(O)C(C)=CC1C (single isomer, unassigned) [Compound 6, Rapamycin (E and Z)-24-(O-methyloxime)]
II = COC1CC2CCC(C)C(O)(O2)C(=O)C(=O)N2CCCCC2C(=O)OC(C(C)CC2CCC(O)C(OC)C2)C/C(=N\O)C(C)C=C(C)C(O)C(OC)C(=O)C(C)CC(C)C=CC=CC=C1C (stereo not drawn)
III = COC1CC2CCC(C)C(O)(O2)C(=O)C(=O)N2CCCCC2C(=O)OC(C(C)CC2CCC(O)C(OC)C2)CC(=NOCC(=O)O)C(C)C=C(C)C(O)C(OC)C(=O)C(C)CC(C)C=CC=CC=C1C (single isomer, unassigned) [Compound 13]
IV = COC1CC2CCC(C)C(O)(O2)C(=O)C(=O)N2CCCCC2C(=O)OC(C(C)CC2CCC(O)C(OC)C2)CC(=NOCC(=O)O)C(C)C=C(C)C(O)C(OC)C(=O)C(C)CC(C)C=CC=CC=C1C (single isomer, unassigned) [Compound 14]
Given 4 compounds, produce a descending ranking by fold loss in affinity (vs rapamycin). Please, when replying, give the labels in the order that was requested.
III, IV, I, II
(III: 3461, IV: 1022, I: 190, II: 25.7)

----------
# Subject of test: FKBPwt (Homo sapiens, UniProt P62942)
# Construct: made in house
# Sequence (P62942 whole entry): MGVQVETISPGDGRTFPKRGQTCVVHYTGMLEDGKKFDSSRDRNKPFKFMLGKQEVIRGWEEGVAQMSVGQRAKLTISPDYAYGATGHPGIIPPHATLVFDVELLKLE
# Assay name: Competitive fluorescence polarization (FP) binding assay of rapalogs to FKBP
# Condition label: =IC50/IC50 of rapamycin; C24 analogs, Table 4
Recorded endpoint: fold loss in affinity (vs rapamycin)
Just the number.

Please report the recorded fold loss in affinity (vs rapamycin) for COC1CC2CCC(C)C(O)(O2)C(=O)C(=O)N2CCCCC2C(=O)OC(C(C)CC2CCC(O)C(OC)C2)CC(=NOCC(N)=O)C(C)C=C(C)C(O)C(OC)C(=O)C(C)CC(C)C=CC=CC=C1C (single isomer, unassigned) [Compound 16] .
88.7

----------
# Subject of test: FKBPwt (Homo sapiens, UniProt P62942)
# Construct: made in house
# Assay name: Competitive fluorescence polarization (FP) binding assay of rapalogs to FKBP
# Condition label: =IC50/IC50 of rapamycin; C7 rapalogs
Recorded endpoint: fold loss in affinity (cf rapamycin)
Number, no unit, nothing else.

Item smiles: CO[C@@H]1C[C@H](C[C@@H](C)[C@@H]2CC(=O)[C@H](C)/C=C(\C)[C@@H](O)[C@@H](OC)C(=O)[C@H](C)C[C@H](C)/C=C/C=C/C=C(\C)[C@@H](c3ccc(C(C)(C)C)s3)C[C@@H]3CC[C@@H](C)[C@@](O)(O3)C(=O)C(=O)N3CCCC[C@H]3C(=O)O2)CC[C@H]1O
fold loss in affinity (cf rapamycin): 1.3

Now consider a different molecule.
Consider the molecule CO[C@@H]1C[C@H](C[C@@H](C)[C@@H]2CC(=O)[C@H](C)/C=C(\C)[C@@H](O)[C@@H](OC)C(=O)[C@H](C)C[C@H](C)/C=C/C=C/C=C(\C)[C@@H](OC(C)C)C[C@@H]3CC[C@@H](C)[C@@](O)(O3)C(=O)C(=O)N3CCCC[C@H]3C(=O)O2)CC[C@H]1O and give its measured fold loss in affinity (cf rapamycin).
1.0
